Measured values drawn from patent US10189843B2 for this set.

Molecular target: UniProt:Q13822
Each record here notes measured IC50.

Worked examples, 3 compounds total:
{"columns": ["compound", "result"],
 "data": [
  ["O=C(O)c1cccc(CN2CC(COCc3ccccc3)n3nc(-c4ccc(Cl)cc4)cc3C2=O)c1 (centres unmarked)", "100 to 1000 nM"],
  ["CC(=O)Nc1cc(Cl)ccc1-c1cc2n(n1)[C@@H](C)CN(C[C@@H]1CNC(=O)O1)C2=O", "100 to 1000 nM"],
  ["C[C@H]1CN(CC(=O)N(C)CC#N)C(=O)c2cc(-c3ccc(C#N)cc3NC(=O)C3CC3)nn21", "10 to 100 nM"]
]}

Next:
What value of IC50 has been reported for the following compound? CCCCC1CN(CC(=O)NCCC(N)=O)C(=O)c2cc(-c3ccc(Cl)cc3)nn21 (centres unmarked)
100 to 1000 nM
